Origin of the recorded values: paper PMC6844228

IC50 by entry:
Test system: human hepatocellular liver carcinoma HepG2 cells
Experiment: Cell Counting Kit-8 cytotoxicity assay, HepG2
Assay type: cell-based
Conditions: HepG2, 48 h
Answer with a number only, understood to be in nM.

COc1ccc(/C=C\c2cc(OC)c(OC)c(OC)c2)cc1O [CA4, combretastatin A4]; 64

Turning now to a further record.
For this compound ( COc1ccc(/C=C\c2cc(OC)c(OC)c(OC)c2)cc1OP(=O)(O)O [CA4P, combretastatin A4 phosphate] ), measured IC50 is 179

====

Here, each record is paired with measured IC50 data.
Tested on: human breast adenocarcinoma MCF-7 cells
Assay: Cell Counting Kit-8 cytotoxicity assay, MCF-7
Type: cell-based
Conditions: MCF7, 48 h
The reply should contain only the number, in µM.

COc1ccc(/C=C\c2cc(OC)c(OC)c(OC)c2)cc1O; 0.004

Turning now to a further compound:
// sample COc1ccc(/C=C\c2cc(OC)c(OC)c(OC)c2)cc1OP(=O)(O)O [CA4P, combretastatin A4 phosphate] , its IC50 was 0.05
